Assay: In vitro nephrotoxicity, LDH release from primary human kidney cells
Assay type: cell-based
Settings: pH 7.4
Starred links: 1 amine or outer side, 2 acyl side, 3 side chain; linkers in the order of their positions; H or OH if unused. Positions of bridges follow the written chain, without caps; N, C: chain ends. Non-standard residues stand in square brackets, D forms with d. Residues, ends and D or L forms follow the SMILES beside them. *: point of attachment. Decanoyl(3R-OH) = CCCCCCC[C@@H](O)CC(=O)*; azaDab = NCCN(N[*:1])C(=O)[*:2]; Dab = NCC[C@H](N)C(=O)O
measurement_type: CC50

Data request: Param item = CCCCCCC[C@@H](O)CC(=O)NN(CCN)C(=O)N[C@H]1CCNC(=O)[C@H](CC(C)C)NC(=O)[C@H](CCN)NC(=O)[C@H](CCN)NC(=O)[C@H](CC(C)C)NC(=O)[C@@H](Cc2ccccc2)NC(=O)[C@H](CCN)NC1=O [compound 8639] ({Decanoyl(3R-OH)}-[azaDab][Dab][Dab][dF]L[Dab][Dab]L; lactam 2-C) ; retrieve measured CC50.
Data returned: > 128 µg/mL

---

System: K. pneumoniae GN_102 PmxR
Details: GN 102 PmxR
Positions of bridges follow the written chain, without caps; N, C: chain ends. Non-standard residues stand in square brackets, D forms with d. Residues, ends and D or L forms follow the SMILES beside them. *: point of attachment. Decanoyl(3R-OH) = CCCCCCC[C@@H](O)CC(=O)*; dDab = NCC[C@@H](N)C(=O)O; Orn = NCCC[C@H](N)C(=O)O; Dab = NCC[C@H](N)C(=O)O; Dap = NC[C@H](N)C(=O)O
measurement_type: MIC, K. pneumoniae Cl Koprana 10065 0661:1, PmxR

Please review the following examples before continuing.
CCCCCCC[C@@H](O)CC(=O)N[C@H](CCN)C(=O)N[C@H]1CCNC(=O)[C@H](CC(C)C)NC(=O)[C@H](CCN)NC(=O)[C@H](CCN)NC(=O)[C@H](CC(C)C)NC(=O)[C@@H](Cc2ccccc2)NC(=O)[C@H](CN)NC1=O [compound 993] ({Decanoyl(3R-OH)}-[dDab][Dab][Dap][dF]L[Dab][Dab]L; lactam 2-C); 2 µg/mL
CCCCCCC[C@@H](O)CC(=O)N[C@H](CCN)C(=O)N[C@H]1CCNC(=O)[C@H](CC(C)C)NC(=O)[C@H](CCN)NC(=O)[C@H](CCCN)NC(=O)[C@H](CC(C)C)NC(=O)[C@@H](Cc2ccccc2)NC(=O)[C@H](CCN)NC1=O [compound 991] ({Decanoyl(3R-OH)}-[dDab][Dab][Dab][dF]L[Orn][Dab]L; lactam 2-C); 1 µg/mL

Turning now to a further record.
Data request: Param item = CCCCCCC[C@@H](O)CC(=O)N[C@H](CCN)C(=O)N[C@H]1CCNC(=O)[C@H](CC(C)C)NC(=O)[C@H](CCN)NC(=O)[C@H](CCN)NC(=O)[C@H](CC(C)C)NC(=O)[C@@H](Cc2ccccc2)NC(=O)[C@H](CCCCN)NC1=O [compound 995] ({Decanoyl(3R-OH)}-[dDab][Dab]K[dF]L[Dab][Dab]L; lactam 2-C) ; retrieve measured MIC, K. pneumoniae Cl Koprana 10065 0661:1, PmxR.
Data returned: 4 µg/mL

Just for reference, patent US11279733B2 is where these values come from.
